Target: Sodium channel protein type 3 subunit alpha (Homo sapiens)
Sequence (Q9NY46 whole entry): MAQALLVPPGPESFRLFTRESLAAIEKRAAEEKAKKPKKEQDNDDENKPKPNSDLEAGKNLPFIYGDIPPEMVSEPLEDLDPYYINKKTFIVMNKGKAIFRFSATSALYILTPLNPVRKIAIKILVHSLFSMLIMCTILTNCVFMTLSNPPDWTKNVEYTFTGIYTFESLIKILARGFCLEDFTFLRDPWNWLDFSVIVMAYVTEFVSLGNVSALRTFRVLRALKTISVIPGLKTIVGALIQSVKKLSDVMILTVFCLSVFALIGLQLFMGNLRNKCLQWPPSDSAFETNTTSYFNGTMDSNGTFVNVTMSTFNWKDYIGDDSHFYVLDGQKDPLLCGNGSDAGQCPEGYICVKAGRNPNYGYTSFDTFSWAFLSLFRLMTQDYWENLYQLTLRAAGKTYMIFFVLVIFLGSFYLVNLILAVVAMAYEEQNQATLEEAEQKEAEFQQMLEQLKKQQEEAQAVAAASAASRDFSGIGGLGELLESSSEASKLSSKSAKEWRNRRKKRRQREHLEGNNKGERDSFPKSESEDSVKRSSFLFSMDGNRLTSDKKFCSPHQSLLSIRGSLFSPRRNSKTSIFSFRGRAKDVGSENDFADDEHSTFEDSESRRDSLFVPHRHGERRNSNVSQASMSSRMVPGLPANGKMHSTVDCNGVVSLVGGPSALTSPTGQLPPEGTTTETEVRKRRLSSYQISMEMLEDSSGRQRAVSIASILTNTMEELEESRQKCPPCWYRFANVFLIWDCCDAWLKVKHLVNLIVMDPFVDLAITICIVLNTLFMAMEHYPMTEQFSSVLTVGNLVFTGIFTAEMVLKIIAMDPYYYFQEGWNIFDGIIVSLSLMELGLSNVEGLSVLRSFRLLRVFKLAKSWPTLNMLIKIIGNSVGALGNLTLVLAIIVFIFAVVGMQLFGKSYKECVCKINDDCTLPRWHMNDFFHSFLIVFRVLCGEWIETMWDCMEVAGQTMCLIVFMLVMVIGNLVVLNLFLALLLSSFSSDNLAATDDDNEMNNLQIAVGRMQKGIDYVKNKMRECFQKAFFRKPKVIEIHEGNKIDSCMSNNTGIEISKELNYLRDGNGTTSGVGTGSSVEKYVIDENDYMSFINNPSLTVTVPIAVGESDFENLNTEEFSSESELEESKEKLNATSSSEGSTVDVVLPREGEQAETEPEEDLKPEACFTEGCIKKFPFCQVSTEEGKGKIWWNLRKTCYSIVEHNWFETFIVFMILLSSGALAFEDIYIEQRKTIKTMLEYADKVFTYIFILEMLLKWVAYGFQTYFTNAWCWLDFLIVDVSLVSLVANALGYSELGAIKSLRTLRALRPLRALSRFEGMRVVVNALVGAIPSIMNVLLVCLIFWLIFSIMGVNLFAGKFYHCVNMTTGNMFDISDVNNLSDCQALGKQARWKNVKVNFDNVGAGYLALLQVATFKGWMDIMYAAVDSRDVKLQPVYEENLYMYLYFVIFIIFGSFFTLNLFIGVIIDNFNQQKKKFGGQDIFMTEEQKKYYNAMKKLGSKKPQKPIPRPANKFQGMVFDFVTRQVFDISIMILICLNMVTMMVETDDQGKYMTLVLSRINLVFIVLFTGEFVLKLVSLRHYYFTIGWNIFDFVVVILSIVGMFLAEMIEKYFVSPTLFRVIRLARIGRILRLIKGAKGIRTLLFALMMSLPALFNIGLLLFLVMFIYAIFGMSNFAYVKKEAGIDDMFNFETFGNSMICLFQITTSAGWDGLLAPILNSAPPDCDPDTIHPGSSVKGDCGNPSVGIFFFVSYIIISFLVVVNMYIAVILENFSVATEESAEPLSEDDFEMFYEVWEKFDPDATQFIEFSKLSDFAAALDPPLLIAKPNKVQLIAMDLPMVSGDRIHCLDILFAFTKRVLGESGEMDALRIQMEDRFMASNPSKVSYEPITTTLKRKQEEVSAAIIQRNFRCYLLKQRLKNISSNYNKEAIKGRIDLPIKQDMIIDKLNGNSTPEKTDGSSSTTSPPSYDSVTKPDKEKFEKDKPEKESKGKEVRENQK
Experiment: Inhibition of human Nav1.3 expressed in HEK293 cells after 600 secs at -60 mV holding potential by ion works barracuda population patch clamp method
reportedProperty: IC50

Query: Return reported IC50; argument: CC(C)COc1ncc(-c2cn(C)c3cc(C(=O)NS(C)(=O)=O)ccc23)cc1Cl
Reply: > 30 µM

* * *

Experiment: Efflux ratio of permeability in human Caco2 cells
Type: ADME, cell-based
Settings: Caco-2
reportedProperty: efflux ratio

Query: Return reported efflux ratio; argument: Cn1cc(-c2cnc(OCC3CC3)c(Cl)c2)c2ccc(C(=O)NS(=O)(=O)C3CC3)cc21
Reply: > 7.6

Query: Repeat with CC(C)COc1ncc(-c2cn(C)c3cc(C(=O)NS(C)(=O)=O)c(F)cc23)cc1Cl
Reply: 3.4

Query: Repeat with Cn1cc(-c2ccc(C(F)(F)F)cc2)c2ccc(C(=O)NS(C)(=O)=O)cc21
Reply: > 5.1

* * *

Experiment: Plasma concentration in mouse model of mechanoreceptor-mediated afferent transmission at 30 mg/kg, ip after 2 hrs
Assay type: ADME, organism-based
reportedProperty: concentration at 2 h (µM)
Provide the reading as a plain figure in µM.

Query: Return reported concentration at 2 h; argument: CC(C)COc1ccc(-c2cn(C)c3cc(C(=O)NS(C)(=O)=O)c(F)cc23)cn1
Reply: 57

Query: Repeat with CC(C)COc1ncc(-c2cn(C)c3cc(C(=O)NS(C)(=O)=O)ccc23)cc1Cl
Reply: 89

* * *

Assay: Fraction unbound in mouse plasma
Format: ADME, cell-free
reportedProperty: fraction unbound
The reply should be a number, written without any unit.

Query: Return reported fraction unbound; argument: CC(C)COc1ccc(-c2nn(C)c3cc(C(=O)NS(=O)(=O)C4CC4)c(F)cc23)cn1
Reply: 0.011

Query: Repeat with Cn1cc(-c2ccc(C(F)(F)F)cc2)c2ccc(C(=O)NS(=O)(=O)C3CC3)cc21
Reply: 0.004

Query: Repeat with CC(C)COc1ncc(-c2nn(C)c3cc(C(=O)NS(C)(=O)=O)ccc23)cc1Cl
Reply: 0.002

Query: Repeat with CC(C)COc1ncc(-c2cn(C)c3cc(C(=O)NS(C)(=O)=O)c(F)cc23)cc1Cl
Reply: 0.002

Query: Repeat with Cn1cc(-c2ccc(C(F)F)cc2)c2cc(F)c(C(=O)NS(=O)(=O)C3CC3)cc21
Reply: 0.007

* * *

Target: Sodium channel protein type 9 subunit alpha (Homo sapiens, UniProt Q15858)
Sequence (Q15858 whole entry): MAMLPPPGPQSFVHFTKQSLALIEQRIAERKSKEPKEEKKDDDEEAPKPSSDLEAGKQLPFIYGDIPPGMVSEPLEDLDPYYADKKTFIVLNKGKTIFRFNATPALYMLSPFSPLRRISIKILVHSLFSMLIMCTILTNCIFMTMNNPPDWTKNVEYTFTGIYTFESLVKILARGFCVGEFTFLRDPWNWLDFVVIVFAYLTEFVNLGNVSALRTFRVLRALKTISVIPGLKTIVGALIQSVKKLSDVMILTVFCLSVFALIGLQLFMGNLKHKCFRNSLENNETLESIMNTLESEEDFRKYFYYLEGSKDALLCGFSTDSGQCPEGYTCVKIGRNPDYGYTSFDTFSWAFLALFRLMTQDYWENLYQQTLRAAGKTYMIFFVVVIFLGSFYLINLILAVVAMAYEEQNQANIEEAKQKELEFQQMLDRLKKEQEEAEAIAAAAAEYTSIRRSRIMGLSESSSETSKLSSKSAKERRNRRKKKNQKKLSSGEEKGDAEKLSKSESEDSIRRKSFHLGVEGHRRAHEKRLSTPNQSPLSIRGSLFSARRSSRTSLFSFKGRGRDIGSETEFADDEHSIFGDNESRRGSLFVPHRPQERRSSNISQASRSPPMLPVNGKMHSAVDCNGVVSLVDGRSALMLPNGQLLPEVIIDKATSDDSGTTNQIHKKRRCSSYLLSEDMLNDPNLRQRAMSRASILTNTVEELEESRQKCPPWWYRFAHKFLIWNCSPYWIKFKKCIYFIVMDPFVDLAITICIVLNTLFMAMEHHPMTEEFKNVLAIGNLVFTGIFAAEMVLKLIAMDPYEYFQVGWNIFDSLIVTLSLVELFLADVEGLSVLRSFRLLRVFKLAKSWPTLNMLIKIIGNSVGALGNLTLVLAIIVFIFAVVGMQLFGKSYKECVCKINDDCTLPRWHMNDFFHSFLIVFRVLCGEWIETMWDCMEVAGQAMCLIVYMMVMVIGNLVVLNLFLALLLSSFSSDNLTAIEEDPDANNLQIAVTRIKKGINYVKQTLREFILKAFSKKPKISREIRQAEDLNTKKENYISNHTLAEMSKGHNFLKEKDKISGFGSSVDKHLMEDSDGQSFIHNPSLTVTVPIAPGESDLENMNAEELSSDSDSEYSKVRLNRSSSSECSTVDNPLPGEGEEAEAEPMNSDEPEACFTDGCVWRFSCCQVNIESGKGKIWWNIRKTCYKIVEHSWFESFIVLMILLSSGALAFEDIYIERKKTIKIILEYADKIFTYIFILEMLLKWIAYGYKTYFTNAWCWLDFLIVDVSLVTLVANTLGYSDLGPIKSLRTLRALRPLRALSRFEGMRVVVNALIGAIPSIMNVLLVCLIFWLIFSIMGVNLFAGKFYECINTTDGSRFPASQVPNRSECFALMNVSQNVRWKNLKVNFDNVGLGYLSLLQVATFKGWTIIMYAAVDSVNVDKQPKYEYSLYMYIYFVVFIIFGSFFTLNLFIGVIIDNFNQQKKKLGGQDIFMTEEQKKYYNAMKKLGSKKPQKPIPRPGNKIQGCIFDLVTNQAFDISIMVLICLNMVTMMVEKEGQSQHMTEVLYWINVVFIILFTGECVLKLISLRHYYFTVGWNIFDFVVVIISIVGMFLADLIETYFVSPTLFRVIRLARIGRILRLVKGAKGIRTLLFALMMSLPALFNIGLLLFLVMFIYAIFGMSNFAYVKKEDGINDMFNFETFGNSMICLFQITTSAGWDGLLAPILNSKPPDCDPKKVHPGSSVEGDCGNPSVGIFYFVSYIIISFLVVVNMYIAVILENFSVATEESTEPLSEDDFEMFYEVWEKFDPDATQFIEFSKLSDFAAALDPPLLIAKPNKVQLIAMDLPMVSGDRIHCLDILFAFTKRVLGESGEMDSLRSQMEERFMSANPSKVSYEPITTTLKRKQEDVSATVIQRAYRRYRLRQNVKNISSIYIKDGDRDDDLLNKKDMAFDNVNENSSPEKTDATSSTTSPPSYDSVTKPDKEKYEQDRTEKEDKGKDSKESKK
Test: Inhibition of human Nav1.7 expressed in HEK293 cells after 600 secs at -60 mV holding potential by ion works barracuda population patch clamp method
Type: cell-based
reportedProperty: IC50 (µM)
Provide the reading as a plain figure in µM.

Query: Return reported IC50; argument: Cn1cc(-c2ccc(C(F)(F)F)cc2)c2ccc(C(=O)NS(C)(=O)=O)cc21
Reply: 0.088

Query: Repeat with Cn1nc(-c2ccc(C(F)(F)F)cc2)c2ccc(C(=O)NS(C)(=O)=O)cc21
Reply: 0.194

Query: Repeat with CC(C)COc1ncc(-c2cn(C)c3cc(C(=O)NS(C)(=O)=O)ccc23)cc1Cl
Reply: 0.108

Query: Repeat with Cn1cc(-c2cnc(OCC3CC3)c(Cl)c2)c2ccc(C(=O)NS(=O)(=O)C3CC3)cc21
Reply: 0.082

* * *

Exercise: state measured concentration for each of the molecules provided.
Assay: Plasma concentration in CD1 mouse model of formalin-induced nociception at 30 mg/kg, po
Format: ADME, organism-based
Details: read-out: Cp, in vivo
Provide the reading as a plain figure in µM.

Query: Return reported concentration; argument: Cn1cc(-c2ccc(C(F)F)cc2)c2cc(F)c(C(=O)NS(=O)(=O)C3CC3)cc21
Reply: 173

Query: Repeat with CC(C)COc1ncc(-c2cn(C)c3cc(C(=O)NS(=O)(=O)C4CC4)c(F)cc23)cc1Cl
Reply: 58

Query: Repeat with CC(C)COc1ccc(-c2cn(C)c3cc(C(=O)NS(=O)(=O)C4CC4)c(F)cc23)cn1
Reply: 132

Query: Repeat with CC(C)COc1ccc(-c2cn(C)c3cc(C(=O)NS(C)(=O)=O)c(F)cc23)cn1
Reply: 44

Query: Repeat with Cn1cc(-c2ccc(C(F)(F)F)cc2)c2cc(F)c(C(=O)NS(=O)(=O)C3CC3)cc21
Reply: 140

Query: Repeat with O=S(=O)(Nc1nccs1)c1cc(Cl)c(NCC23CCCN2CCC3)cc1F
Reply: 1.4
